From: patent US7714006B1

- assayName: Food effect study: single oral Skelaxin 400 mg tablet with vs without food, healthy subjects, plasma pharmacokinetics
- Format: in vivo, human
- runConditions: both sexes, human, plasma, oral, 400 mg, Treatment A: 400 mg tablet with food; read-out: T1/2, least squares mean (converted)
testReadout: half-life

**Query** Which half-life value is on record for Cc1cc(C)cc(OCC2CNC(=O)O2)c1 (stereo not shown) [metaxalone] ?
**Result** 2.37 h

====

- assayName: Food effect study: single oral Skelaxin 400 mg tablet with vs without food, healthy subjects, plasma pharmacokinetics
- Format: in vivo, human
- runConditions: both sexes, human, plasma, oral, 400 mg, Treatment B: 400 mg tablet without food; read-out: AUC(last), least squares mean
testReadout: AUC(0-t) (ng·h/mL)
# value in ng·h/mL; strip the unit string

**Query** Which AUC(0-t) value is on record for Cc1cc(C)cc(OCC2CNC(=O)O2)c1 (stereo not shown) [metaxalone] ?
**Result** 6960
